Origin of values: paper PMC10786891

Target: T1, EsCas13d, nuclease-dead (Eubacterium siraeum, UniProt B0MS50, R295A;H300A;R849A;H854A)
T1 sequence: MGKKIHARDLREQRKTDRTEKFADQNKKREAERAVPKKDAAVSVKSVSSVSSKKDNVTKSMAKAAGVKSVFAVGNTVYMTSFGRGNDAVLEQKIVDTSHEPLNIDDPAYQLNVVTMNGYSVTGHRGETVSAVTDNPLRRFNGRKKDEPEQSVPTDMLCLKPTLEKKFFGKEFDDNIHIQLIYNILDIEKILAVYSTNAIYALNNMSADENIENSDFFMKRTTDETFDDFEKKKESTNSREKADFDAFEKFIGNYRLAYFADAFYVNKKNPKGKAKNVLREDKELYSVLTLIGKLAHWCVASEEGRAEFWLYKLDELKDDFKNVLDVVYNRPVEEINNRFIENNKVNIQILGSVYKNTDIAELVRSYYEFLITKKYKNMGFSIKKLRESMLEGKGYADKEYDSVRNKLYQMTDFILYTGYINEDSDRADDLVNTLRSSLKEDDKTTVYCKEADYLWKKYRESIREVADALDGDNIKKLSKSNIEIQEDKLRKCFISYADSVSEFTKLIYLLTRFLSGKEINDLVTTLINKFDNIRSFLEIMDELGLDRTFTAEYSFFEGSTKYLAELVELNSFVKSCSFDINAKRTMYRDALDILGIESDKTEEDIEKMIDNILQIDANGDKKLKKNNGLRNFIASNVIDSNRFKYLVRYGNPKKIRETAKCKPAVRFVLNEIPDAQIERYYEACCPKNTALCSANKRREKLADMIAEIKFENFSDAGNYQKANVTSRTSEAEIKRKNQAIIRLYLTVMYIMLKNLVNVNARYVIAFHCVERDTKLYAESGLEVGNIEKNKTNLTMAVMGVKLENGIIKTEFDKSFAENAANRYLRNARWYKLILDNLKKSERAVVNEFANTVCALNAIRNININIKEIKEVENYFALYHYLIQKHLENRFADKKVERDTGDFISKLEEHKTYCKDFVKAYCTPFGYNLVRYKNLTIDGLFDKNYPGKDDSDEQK
Assay: crRNA (strand 1, pre-loaded); Mg2+; 40 mM Tris-HCl pH 7.5, 150 mM NaCl, 6 mM MgCl2, 1 mM DTT, 0.1% Tween-20, 0.2 mg/ml BSA; 25 C; 10 min per concentration, then washed
Conditions: tags: His6-TwinStrep-SUMO cleaved; N-terminal SNAP kept (SNAP-Surface 488); label: 3' end held by stalled T7 RNA polymerase
pKd: −log10 of the molar value.
endpointLabel: pKd

binder	measured
target 1 insC 3' of 19,insU 3' of 12 (mixed) RNA 1: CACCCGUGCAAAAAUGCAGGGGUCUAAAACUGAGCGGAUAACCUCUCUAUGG RNA 2: GGGAAUGGAUCCACAUCUACGAAUUCGUACCAUCAGAGAGGUUUAUCCGCUCACCGAGAUCGGAAGAGCACACGU	7.51
target 1 MT 5'PFS GGG 3'PFS UGU (mixed) RNA 1: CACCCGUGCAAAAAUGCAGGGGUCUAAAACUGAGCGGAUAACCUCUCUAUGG RNA 2: GGGAAUGGAUCCACAUCUACGAAUUCGGGCCAUAGAGAGGUUAUCCGCUCAUGUAGAUCGGAAGAGCACACGU	7.37
target 1 MT 5'PFS GCA 3'PFS UCU (mixed) RNA 1: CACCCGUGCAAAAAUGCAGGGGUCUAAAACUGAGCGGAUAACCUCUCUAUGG RNA 2: GGGAAUGGAUCCACAUCUACGAAUUCGCACCAUAGAGAGGUUAUCCGCUCAUCUAGAUCGGAAGAGCACACGU	7.98
target 2 MT 5'PFS CCU 3'PFS CCC (mixed) RNA 1: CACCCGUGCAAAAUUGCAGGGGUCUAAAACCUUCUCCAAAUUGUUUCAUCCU RNA 2: GGGAAUGGAUCCACAUCUACGAAUUCCCUAGGAUGAAACAAUUUGGAGAAGCCCAGAUCGGAAGAGCACACGU	8.28
